biological target: acetylcholine receptor; assay: SPR, acetylcholine receptor on CM5 chip, peptide at 10 uM
Let's look at some binders and their measured Binding affinity (RU).
attribute-measured: Binding affinity (RU)

>  <binder>
KKLQQK [6mer-1-589]

>  <reported-measurement>
139 RU

$$$$
>  <binder>
KRVLLR [6mer-1-573]

>  <reported-measurement>
126 RU

$$$$
>  <binder>
KKGFTK [6mer-1-556]

>  <reported-measurement>
145 RU

$$$$
>  <binder>
KRWFLK [6mer-1-582]

>  <reported-measurement>
137 RU

$$$$
>  <binder>
RKVYLK [6mer-1-561]

>  <reported-measurement>
131 RU

$$$$
>  <binder>
RRWLSK [6mer-1-592]

>  <reported-measurement>
135 RU

$$$$
>  <binder>
KRGFYK [6mer-1-597]

>  <reported-measurement>
148 RU

$$$$
>  <binder>
RKGQYK [6mer-1-578]

>  <reported-measurement>
139 RU

$$$$
>  <binder>
KRWFRR [6mer-1-542]

>  <reported-measurement>
128 RU

$$$$
>  <binder>
RRVITK [6mer-1-569]

>  <reported-measurement>
148 RU

$$$$
>  <binder>
KRVICR [6mer-1-544]

>  <reported-measurement>
149 RU

$$$$
>  <binder>
RRGVRK [6mer-1-553]

>  <reported-measurement>
128 RU

$$$$
>  <binder>
RKSRQK [6mer-1-585]

>  <reported-measurement>
144 RU

$$$$
>  <binder>
KRQLQR [6mer-1-594]

>  <reported-measurement>
121 RU

$$$$
>  <binder>
KRGRLR [6mer-1-551]

>  <reported-measurement>
142 RU

$$$$
>  <binder>
RKSYLR [6mer-1-574]

>  <reported-measurement>
148 RU

$$$$
